Measured pIC50 accompanies every entry in the list below.
Subject Of Test: Recombinant ROCK2 (amino acids 5-554) (Homo sapiens, UniProt O75116)
Construct: ROCK2 (amino acids 5-554); by word order, ROCK2 from SignalChem
Sequence (O75116 5-554): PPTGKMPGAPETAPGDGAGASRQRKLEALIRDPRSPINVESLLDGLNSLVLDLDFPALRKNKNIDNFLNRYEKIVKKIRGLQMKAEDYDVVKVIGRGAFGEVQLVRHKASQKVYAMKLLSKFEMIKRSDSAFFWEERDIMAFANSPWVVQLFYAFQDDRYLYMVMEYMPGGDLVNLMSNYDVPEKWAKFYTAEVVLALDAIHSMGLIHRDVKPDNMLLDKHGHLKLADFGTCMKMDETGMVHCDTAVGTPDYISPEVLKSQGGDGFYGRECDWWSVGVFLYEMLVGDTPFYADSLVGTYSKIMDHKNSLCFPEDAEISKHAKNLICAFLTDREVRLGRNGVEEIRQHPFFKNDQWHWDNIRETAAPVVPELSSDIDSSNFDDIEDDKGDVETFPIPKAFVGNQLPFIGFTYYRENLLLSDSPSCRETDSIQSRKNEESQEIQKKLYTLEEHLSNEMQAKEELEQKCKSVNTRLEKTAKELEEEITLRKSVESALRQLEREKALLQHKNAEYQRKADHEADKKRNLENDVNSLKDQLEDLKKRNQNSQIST
Protocol Description: ROCK inhibition assay, LANCE Ultra TR-FRET kinase assay (ROCK2)
Test Settings: 4 μM ATP, 50 nM ULight-CREBtide substrate
pIC50: −log10 of the molar value.

Cn1nccc1-c1cc2ccn(Cc3cc(F)cc(C(=O)NCC4CCOCC4)c3)c(=O)c2cn1 [Compound 270]    7.00 to 8.00
O=C(NC1CCOCC1)c1cccc(Cn2ccc3cc(N4CCOCC4)ccc3c2=O)c1 [Compound 212]    6.30 to 7.00
CN1CCC(NC(=O)c2cc(F)cc(Cn3ccc4cc(-c5c[nH]nc5C(F)(F)F)ccc4c3=O)c2)CC1 [Compound 132]    > 8.00
O=C(NCC1CCOCC1)c1cc(F)cc(Cn2ccc3cc(-c4c[nH]nc4C(F)(F)F)ccc3c2=O)c1 [Compound 135]    7.00 to 8.00
C[C@H](c1cccc(C(=O)Nc2ccc(F)cc2)c1)n1cnc2cc(-c3cn[nH]c3Br)ccc2c1=O [Compound 517]    > 8.00

Problem: For the compound shown here, Cc1nocc1-c1ccc2c(=O)n([C@H](C)c3cccc(C(=O)N(C)C)c3)cnc2c1 [Compound 470] , give the reported pIC50.
Solution: < 6.30

Problem: For the compound shown here, Cc1nocc1-c1ccc2c(=O)n(Cc3cc(F)cc(C(=O)NC4CCOCC4)c3)ccc2c1 [Compound 148] , give the reported pIC50.
Solution: 7.00 to 8.00

Problem: For the compound shown here, CS(=O)(=O)Nc1ccc(CNC(=O)c2cccc(Cn3cnc4cc(-c5cn[nH]c5C(F)(F)F)ccc4c3=O)c2)cc1 [Compound 373] , give the reported pIC50.
Solution: > 8.00

* * *

Measured pIC50 accompanies every entry in the list below.
Subject Of Test: Recombinant ROCK1 (amino acids 1-477) (Homo sapiens)
Construct: Recombinant ROCK1 (amino acids 1-477); by word order, ROCK1 from Carna Biosciences
Protocol Description: ROCK inhibition assay, LANCE Ultra TR-FRET kinase assay (ROCK1)
Test Settings: 1 μM ATP, 50 nM ULight-CREBtide substrate
pIC50: −log10 of the molar value.

Solved cases (3 shown):
CNC(=O)c1cccc(C(C)n2cc(CCO)c3cc(-c4cn[nH]c4Cl)ccc3c2=O)c1 (stereo not shown) [Compound 551]    7.00 to 7.96
Cc1nocc1-c1ccc2c(=O)n(Cc3cc(F)cc(C(=O)Nc4ccc5c(c4)CCN(C)C5)c3)ccc2c1 [Compound 163]    > 8.00
CNC(=O)c1cccc(Cn2cc(C(C)O)c3cc(-c4c[nH]nc4N)ccc3c2=O)c1 (stereo not shown) [Compound 544]    7.00 to 7.96

Problem: Kindly state the measured pIC50 obtained for O=C(NCC1CCOCC1)c1cc(F)cc(Cn2ccc3cc(-c4c[nH]nc4C(F)(F)F)ccc3c2=O)c1 [Compound 135] with Recombinant ROCK1 (amino acids 1-477) (Homo sapiens).
Solution: 6.30 to 7.00

* * *

Subject Of Test: Recombinant ROCK1 (amino acids 1-477) (Homo sapiens, UniProt Q13464)
Construct: Recombinant ROCK1 (amino acids 1-477); by word order, ROCK1 from Carna Biosciences
Sequence (Q13464 1-477): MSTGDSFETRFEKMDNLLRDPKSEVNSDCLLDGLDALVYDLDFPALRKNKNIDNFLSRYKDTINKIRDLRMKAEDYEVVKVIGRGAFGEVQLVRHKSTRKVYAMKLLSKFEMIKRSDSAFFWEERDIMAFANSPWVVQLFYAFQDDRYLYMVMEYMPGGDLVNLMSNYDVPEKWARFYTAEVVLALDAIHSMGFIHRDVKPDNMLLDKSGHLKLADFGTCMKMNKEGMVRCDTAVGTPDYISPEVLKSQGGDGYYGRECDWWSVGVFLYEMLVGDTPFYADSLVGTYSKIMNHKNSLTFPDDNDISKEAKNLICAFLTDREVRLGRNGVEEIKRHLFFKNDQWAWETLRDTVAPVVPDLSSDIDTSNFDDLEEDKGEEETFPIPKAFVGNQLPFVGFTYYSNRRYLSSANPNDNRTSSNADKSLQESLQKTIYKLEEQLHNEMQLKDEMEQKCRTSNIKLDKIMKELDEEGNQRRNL
Protocol Description: ROCK inhibition assay, LANCE Ultra TR-FRET kinase assay (ROCK1)
Test Settings: 1 μM ATP, 50 nM ULight-CREBtide substrate
Measured Endpoint: IC50

C[C@H](c1cccc(C(=O)NC2CC2)c1)n1cnc2cc(-c3cn[nH]c3Br)ccc2c1=O    11 to 100 nM
CN1CCC(NC(=O)c2cccc(Cn3cnc4cc(-c5cn[nH]c5C(F)(F)F)ccc4c3=O)c2)CC1    < 10 nM
O=C(Nc1ccon1)c1cccc(Cn2cnc3cc(-c4cn[nH]c4C(F)(F)F)ccc3c2=O)c1    101 to 500 nM

Problem: For the molecule shown here, "Cn1nccc1-c1ccc2c(=O)n(Cc3cccc(C(=O)NC4CCN(CC(F)(F)F)CC4)c3)ccc2c1" , give the reported IC50.
Solution: 11 to 100 nM

* * *

Subject Of Test: Recombinant ROCK2 (amino acids 5-554) (Homo sapiens)
Construct: ROCK2 (amino acids 5-554); by word order, ROCK2 from SignalChem
Protocol Description: ROCK inhibition assay, LANCE Ultra TR-FRET kinase assay (ROCK2)
Test Settings: 4 μM ATP, 50 nM ULight-CREBtide substrate
Measured IC50 accompanies every entry in the list below.

Problem: For the compound shown here, "Cc1nocc1-c1ccc2c(=O)n([C@H](C)c3cccc(C(=O)NCC4CCN(C)CC4)c3)cnc2c1" , give the reported IC50.
Solution: < 10 nM

* * *

Subject Of Test: Recombinant ROCK2 (amino acids 5-554) (Homo sapiens, UniProt O75116)
Construct: ROCK2 (amino acids 5-554); by word order, ROCK2 from SignalChem
Protocol Description: ROCK inhibition assay, LANCE Ultra TR-FRET kinase assay (ROCK2)
Test Settings: 4 μM ATP, 50 nM ULight-CREBtide substrate
Measured Endpoint: IC50

Solved cases (3 shown):
Nc1cc(-c2ccc3c(=O)n(Cc4cccc(C(=O)NC5COC5)c4)cnc3c2)ccn1 [Compound 434]    10 to 100 nM
Nc1cc(-c2ccc3c(=O)n(Cc4cccc(C(=O)NC5CCCC5)c4)ccc3c2)ccn1 [Compound 198]    100 to 500 nM
CC(=O)Nc1cccc(Cn2ccc3cc(-c4conc4C)ccc3c2=O)c1 [Compound 347]    10 to 100 nM

Problem: For the molecule shown here, Nc1cc(-c2ccc3c(=O)n(Cc4cccc(C(=O)NCc5ccccc5CO)c4)ccc3c2)ccn1 [Compound 184] , give the reported IC50.
Solution: 10 to 100 nM

Problem: For the molecule shown here, Cc1nocc1-c1ccc2c(=O)n(Cc3cc(F)cc(C(=O)NCCN4CCN(C)CC4)c3)ccc2c1 [Compound 144] , give the reported IC50.
Solution: < 10 nM

Problem: For the molecule shown here, Cc1nocc1-c1ccc2c(=O)n(Cc3cc(F)cc(C(=O)Nc4ccc5c(c4)CN(C4CC4)CC5)c3)ccc2c1 [Compound 161] , give the reported IC50.
Solution: < 10 nM

Problem: For the molecule shown here, O=C(NC1CC1)c1cccc(Cn2ccc3cc(-c4c[nH]nc4C(F)(F)F)ccc3c2=O)c1 [Compound 50] , give the reported IC50.
Solution: 10 to 100 nM

Problem: For the molecule shown here, COc1cccc(Cn2cnc3cc(-c4cn[nH]c4)ccc3c2=O)c1 [Compound 354] , give the reported IC50.
Solution: 10 to 100 nM

* * *

Subject Of Test: Recombinant ROCK1 (amino acids 1-477) (Homo sapiens)
Construct: Recombinant ROCK1 (amino acids 1-477); by word order, ROCK1 from Carna Biosciences
Protocol Description: ROCK inhibition assay, LANCE Ultra TR-FRET kinase assay (ROCK1)
Assay type: biochemical
Test Settings: 1 μM ATP, 50 nM ULight-CREBtide substrate
Measured IC50 accompanies every entry in the list below.

Solved cases (2 shown):
Cc1nocc1-c1ccc2c(=O)n(Cc3cccc(C(=O)NCCN4CCOCC4)c3)ccc2c1    101 to 500 nM
Cc1n[nH]cc1-c1ccc2c(=O)n(Cc3cccc(C(=O)Nc4ccn(C)n4)c3)ccc2c1    101 to 500 nM

Problem: For the molecule shown here, "C[C@H](c1cccc(C(=O)NCC2CCN(C)CC2)c1)n1cnc2cc(-c3cn[nH]c3C(F)F)ccc2c1=O" , give the reported IC50.
Solution: < 10 nM

Problem: For the molecule shown here, "O=C(Nc1ccno1)c1cccc(Cn2ccc3cc(N4CCOCC4)ccc3c2=O)c1" , give the reported IC50.
Solution: > 501 nM

* * *

Measured pIC50 accompanies every entry in the list below.
Subject Of Test: Recombinant ROCK2 (amino acids 5-554) (Homo sapiens, UniProt O75116)
Construct: ROCK2 (amino acids 5-554); by word order, ROCK2 from SignalChem
Protocol Description: ROCK inhibition assay, LANCE Ultra TR-FRET kinase assay (ROCK2)
Test Settings: 4 μM ATP, 50 nM ULight-CREBtide substrate
pIC50: −log10 of the molar value.

Cc1n[nH]cc1-c1cc2ccn(Cc3cc(F)cc(C(=O)NC4CCOCC4)c3)c(=O)c2cn1    > 8.00

Problem: For the compound shown here, "Cc1nocc1-c1ccc2c(=O)n(Cc3cc(F)cc(C(=O)N[C@H]4C[C@H](O)C4)c3)ccc2c1" , give the reported pIC50.
Solution: 7.00 to 8.00

Problem: For the compound shown here, "O=C(NCC1CCN(C2COC2)CC1)c1cc(F)cc(Cn2ccc3cc(N4CCOCC4)ccc3c2=O)c1" , give the reported pIC50.
Solution: 7.00 to 8.00

Problem: For the compound shown here, "O=C(NCC1COC1)c1cccc(Cn2cnc3cc(-c4cn[nH]c4C(F)(F)F)ccc3c2=O)c1" , give the reported pIC50.
Solution: > 8.00

Problem: For the compound shown here, "O=C(NCC1CCNCC1)c1cccc(Cn2ccc3cc(-c4c[nH]nc4C(F)F)ccc3c2=O)c1" , give the reported pIC50.
Solution: > 8.00
